- procedure_details: Pharmacokinetics of C6 in mice (IV, SC, oral)
- condition_parameters: mouse, plasma, subcutaneous, 30 mg/kg
outcome_measure: bioavailability

given_smiles	test_result
CC[C@H](C)[C@H](NC(=O)[C@@H]1CC[C@H](c2ccc(C)o2)N1C(=O)[C@@H](NC(=O)[C@H](C)NC)C(C)C)C(=O)NC(c1ccccc1)c1ccccc1	56.6%

----------
- procedure_details: Pharmacokinetics of C6 in mice (IV, SC, oral)
- condition_parameters: mouse, plasma, sc, 30 mg/kg

molecule	Cmax, ng/mL
CC[C@H](C)[C@H](NC(=O)[C@@H]1CC[C@H](c2ccc(C)o2)N1C(=O)[C@@H](NC(=O)[C@H](C)NC)C(C)C)C(=O)NC(c1ccccc1)c1ccccc1 [Compound 6]	5020
